molecular target: human DGAT2 (hDGAT2) (Homo sapiens (Human))
Sequence (Q96PD7 whole entry): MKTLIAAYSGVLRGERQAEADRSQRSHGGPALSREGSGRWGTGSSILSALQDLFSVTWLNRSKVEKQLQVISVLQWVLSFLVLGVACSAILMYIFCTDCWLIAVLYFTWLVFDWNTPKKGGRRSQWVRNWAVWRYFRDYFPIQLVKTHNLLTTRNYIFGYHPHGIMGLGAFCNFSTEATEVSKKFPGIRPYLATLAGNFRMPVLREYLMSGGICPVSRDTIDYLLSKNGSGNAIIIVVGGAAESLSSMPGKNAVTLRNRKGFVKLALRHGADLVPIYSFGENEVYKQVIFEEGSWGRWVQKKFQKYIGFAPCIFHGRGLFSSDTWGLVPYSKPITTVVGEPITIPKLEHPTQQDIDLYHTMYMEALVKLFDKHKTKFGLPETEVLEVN
Structures can show the parent of a compound that is named as a salt.
quantity kind: pIC50
Numbers only, as −log10 of the molar value.

Batch request: pIC50 per item, same order as input.
1. CCOc1cc(F)cnc1Oc1cncc(-c2ncc(C(=O)N[C@@H]3CNC[C@@H](F)C3)cn2)c1
2. CCOc1cccnc1Oc1cncc(-c2ncc(C(=O)N[C@H]3CNC[C@H](F)C3)cn2)c1 [Example 7, trifluoroacetate salt]

Response:
8.07
7.38

Batch request: pIC50 per item, same order as input.
1. CCOc1cccnc1Oc1cncc(-c2ncc(C(=O)N[C@@H]3CNC[C@@H](F)C3)cn2)c1
2. CCOc1cccnc1Oc1cncc(-c2ncc(C(=O)N[C@H]3CNCC[C@H]3C)cn2)c1 (racemic) [Example 20, trifluoroacetate salt]

Response:
8.00
5.68

====

Observed log10 IC50 for human DGAT2 (hDGAT2) (Homo sapiens (Human), UniProt Q96PD7), reported per entry below.
Where a name gives a salt, the structure may show the parent alone.
# values: log10(IC50), units µM

CCOc1cccnc1Oc1cncc(-c2ncc(C(=O)NC3CCC(C(F)(F)F)NC3)cn2)c1 (single isomer, unassigned; ent-2)
-2.36

Batch request: log10 IC50 per item, same order as input.
1. CCOc1cc(F)cnc1Oc1cncc(-c2ncc(C(=O)N[C@@H]3CNCC[C@H]3F)cn2)c1
2. CCOc1cccnc1Oc1cncc(-c2ncc(C(=O)N[C@H]3CNCCC3(F)F)cn2)c1 (single isomer, unassigned) [Example 15, trifluoroacetate salt]
3. CCOc1cccnc1Oc1cncc(-c2ncc(C(=O)N[C@H]3CNCC[C@@H]3F)cn2)c1 [Example 12, trifluoroacetate salt]

Response:
-1.10
0.52
-0.23

====

test system: human liver microsomes; test: Intrinsic clearance in human liver microsomes; conditions: human liver microsome assay, 1 μM
Where a name gives a salt, the structure may show the parent alone.
quantity kind: CLint (+/− STD Dev)

CCOc1cccnc1Oc1cncc(-c2ncc(C(=O)N[C@@H]3CNCC[C@@H]3F)cn2)c1.O=C(O)C(F)(F)F.O=C(O)C(F)(F)F
<7 µL/min/mg
CCOc1cccnc1Oc1cncc(-c2ncc(C(=O)N[C@H]3CNCC[C@@H]3F)cn2)c1 [Example 12, trifluoroacetate salt]
<7 µL/min/mg
CCOc1cccnc1Oc1cncc(-c2ncc(C(=O)N[C@H]3CC[C@H](C(F)(F)F)NC3)cn2)c1 (racemic)
>290 µL/min/mg
CCOc1cccnc1Oc1cncc(-c2ncc(C(=O)N[C@@H]3CNCC[C@H]3F)cn2)c1
<7 µL/min/mg
CCOc1cccnc1Oc1cncc(-c2ncc(C(=O)N[C@@H]3CNCC(F)(F)C3)cn2)c1 (single isomer, unassigned)
34 ± 1.9 µL/min/mg
CCOc1cccnc1Oc1cncc(-c2ncc(C(=O)NC3CCC(C(F)(F)F)NC3)cn2)c1 (single isomer, unassigned; ent-2)
>290 µL/min/mg

Query: Lab note: need CLint (+/− STD Dev) with human liver microsomes for entry CCOc1cc(F)cnc1Oc1cncc(-c2ncc(C(=O)N[C@@H]3CNCC[C@@H]3F)cn2)c1.O=C(O)C(F)(F)F.O=C(O)C(F)(F)F , please look it up.
Response: <7 µL/min/mg

====

For each of the molecules below, state its CLint (+/− Std Dev).
system: human hepatocytes; test: High throughput intrinsic clearance in human hepatocytes; conditions: high throughput human hepatocyte assay, 1 μM

Some solved entries appear below for comparison.
CCOc1cccnc1Oc1cncc(-c2ncc(C(=O)N[C@@H]3CNCC(F)(F)C3)cn2)c1 (single isomer, unassigned) [Example 19]
14 +/− 1.4 μL/min/10^6 cells
CCOc1cc(F)cnc1Oc1cncc(-c2ncc(C(=O)N[C@@H]3CNCC[C@@H]3F)cn2)c1.O=C(O)C(F)(F)F.O=C(O)C(F)(F)F [Example 1]
<2.7 +/− 0.72 μL/min/10^6 cells
CCOc1cccnc1Oc1cncc(-c2ncc(C(=O)NC3CCC(C(F)(F)F)NC3)cn2)c1 (single isomer, unassigned; ent-2) [Example 11]
38 +/− 2.0 μL/min/10^6 cells

Proceed to the following item.
Query: Lab note: need CLint (+/− Std Dev) with human hepatocytes for entry CCOc1cccnc1Oc1cncc(-c2ncc(C(=O)N[C@@H]3CNCC[C@@H]3F)cn2)c1.O=C(O)C(F)(F)F.O=C(O)C(F)(F)F [Example 3] , please look it up.
Response: <1.9 +/− 0.35 μL/min/10^6 cells

====

biological target: DGAT2 in human hepatocytes (Homo sapiens (Human), UniProt Q96PD7); assay: Determination of IC50 values for DGAT2 inhibitors in human hepatocytes; details: geometric mean; cryopreserved human hepatocytes, DGAT1 inhibitor 3 μM present
Sequence (Q96PD7 whole entry): as above
pIC50: −log10 of the molar value. Structures can show the parent of a compound that is named as a salt.
Mark Fulfilled for reported pIC50 of 8 or greater; mark Not fulfilled for anything smaller.

CCOc1cc(F)cnc1Oc1cncc(-c2ncc(C(=O)N[C@@H]3CNCC[C@H]3F)cn2)c1 [Example 6]
Fulfilled

Query: pIC50 >= 8 for CCOc1cc(F)cnc1Oc1cncc(-c2ncc(C(=O)N[C@H]3CNCC[C@@H]3F)cn2)c1 [Example 13, formate salt] ?
Response: Fulfilled

Query: pIC50 >= 8 for CCOc1cccnc1Oc1cncc(-c2ncc(C(=O)N[C@@H]3CNCC(F)(F)C3)cn2)c1 (single isomer, unassigned) [Example 18] ?
Response: Not fulfilled

Query: pIC50 >= 8 for CCOc1cccnc1Oc1cncc(-c2ncc(C(=O)N[C@@H]3CNCC[C@@H]3F)cn2)c1.O=C(O)C(F)(F)F.O=C(O)C(F)(F)F [Example 3, bis(trifluoroacetate) salt] ?
Response: Not fulfilled

Query: pIC50 >= 8 for CCOc1cc(F)cnc1Oc1cncc(-c2ncc(C(=O)N[C@@H]3CNC[C@@H](F)C3)cn2)c1 [Example 2] ?
Response: Fulfilled

====

assay: Determination of pKa (capillary electrophoresis); details: most basic pKa, mean
For each of the compounds below, state its Basic pKa.
Give bare numbers.

CCOc1cc(F)cnc1Oc1cncc(-c2ncc(C(=O)N[C@@H]3CNCC[C@@H]3F)cn2)c1.O=C(O)C(F)(F)F.O=C(O)C(F)(F)F
7.7

Batch request: Basic pKa per item, same order as input.
1. CCOc1cccnc1Oc1cncc(-c2ncc(C(=O)NC3CCC(C(F)(F)F)NC3)cn2)c1 (single isomer, unassigned; ent-1)
2. CCOc1cccnc1Oc1cncc(-c2ncc(C(=O)N[C@@H]3CNCC(F)(F)C3)cn2)c1 (single isomer, unassigned)
3. CCOc1cccnc1Oc1cncc(-c2ncc(C(=O)N[C@H]3CC[C@H](C(F)(F)F)NC3)cn2)c1 (racemic)
4. CCOc1cccnc1Oc1cncc(-c2ncc(C(=O)N[C@@H]3CNCC[C@@H]3F)cn2)c1.O=C(O)C(F)(F)F.O=C(O)C(F)(F)F

Response:
1. 4.7
2. 5.2
3. 5.3
4. 8.1

====

Structures can show the parent of a compound that is named as a salt.
Observed IC50 for human DGAT2 (hDGAT2) (Homo sapiens (Human)), reported per entry below.
Numbers only, in nM.

Batch request: IC50 per item, same order as input.
1. CCOc1cc(F)cnc1Oc1cncc(-c2ncc(C(=O)N[C@H]3CNCC[C@@H]3F)cn2)c1 [Example 13, formate salt]
2. CCOc1cccnc1Oc1cncc(-c2ncc(C(=O)N[C@@H]3CNCC[C@@H]3F)cn2)c1.O=C(O)C(F)(F)F.O=C(O)C(F)(F)F [Example 3, bis(trifluoroacetate) salt]
3. CCOc1cc(F)cnc1Oc1cncc(-c2ncc(C(=O)N[C@@H]3CNCC[C@@H]3F)cn2)c1.O=C(O)C(F)(F)F.O=C(O)C(F)(F)F [Example 1, bis(trifluoroacetate) salt]

Response:
1. 57
2. 40
3. 5.8
